- test-target: lambda cI repressor, hexa-histidine-tagged (bacteriophage lambda, UniProt P03034 1-237)
- Sequence (P03034 whole entry): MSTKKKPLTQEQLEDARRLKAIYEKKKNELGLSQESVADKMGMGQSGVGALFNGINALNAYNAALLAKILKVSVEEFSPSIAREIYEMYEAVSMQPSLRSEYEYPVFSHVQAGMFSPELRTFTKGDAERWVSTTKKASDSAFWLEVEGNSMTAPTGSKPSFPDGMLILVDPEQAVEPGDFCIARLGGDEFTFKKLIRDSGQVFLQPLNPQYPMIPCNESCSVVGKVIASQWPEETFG
- test-protocol: filter binding
measured-attribute: pKd
Numbers only, as −log10 of the molar value.

Query aptamer Tarap (Guu(0/-7)) (structured_RNA) RNA: GGGAUCGACAGGGCUCCCGUUUGGCUCGGCGAAGAUCGCCUGUACUUUGGAAAGCCGAGUCGU yields pKd of 6.58
